Data credit: patent EP0080271A1

I'd appreciate it if you could supply edema (%) values for the items below.
tested on: edema induced by carrageenin in rat; assay: inhibition of edema induced by carrageenin in rat (hind paw volume); format: in vivo; conditions: oral 1 hour before carrageenin injection, hind paw volume 3 hours after injection, dose 0.030 mM
Write down the numeric answer in % and omit the unit.

stdin: Quick one: give measured edema (%) for COc1ccc2c(c1)c(CC(=O)O)c(C)n2C(=O)c1ccc(Cl)cc1
stdout: 37.7

stdin: Tell us which edema (%) value is on record for CCOC(=O)c1ccccc1OC(=O)Cc1c(C)n(C(=O)c2ccc(Cl)cc2)c2ccc(OC)cc12
stdout: 52.9

stdin: Give edema (%) for COc1ccc2c(c1)c(CC(=O)Oc1ccccc1C(=O)OC(C)(C)C)c(C)n2C(=O)c1ccc(Cl)cc1
stdout: 52.9

stdin: Supply recorded edema (%) for COc1ccc2c(c1)c(CC(=O)Oc1ccccc1C(=O)Oc1ccccc1C(=O)O)c(C)n2C(=O)c1ccc(Cl)cc1 here.
stdout: 41.4

====

test system: rats; test: ulceration activity: ulcer index 5 hours after oral administration; format: in vivo; settings: sacrificed 5 hours after administration, dose 0.030 mM
Answer each item with its documented ulcer index (mm).
Numbers only; they are read as mm.

stdin: Please indicate ulcer index (mm) recorded for COc1ccc2c(c1)c(CC(=O)Oc1ccccc1C(=O)OC(C)(C)C)c(C)n2C(=O)c1ccc(Cl)cc1
stdout: 0.2

stdin: Return reported ulcer index (mm). Input molecule: COc1ccc2c(c1)c(CC(=O)Oc1ccccc1C(=O)OCc1ccccc1)c(C)n2C(=O)c1ccc(Cl)cc1
stdout: 0.1

stdin: Please list ulcer index (mm) recorded for the molecule CCOC(=O)c1ccccc1OC(=O)Cc1c(C)n(C(=O)c2ccc(Cl)cc2)c2ccc(OC)cc12
stdout: 0.2

stdin: Given COc1ccc2c(c1)c(CC(=O)O)c(C)n2C(=O)c1ccc(Cl)cc1 , respond with its ulcer index (mm).
stdout: 5.9

stdin: Let me know recorded ulcer index (mm) for COc1ccc2c(c1)c(CC(=O)Oc1ccccc1C(=O)Oc1ccccc1C(=O)O)c(C)n2C(=O)c1ccc(Cl)cc1 , thanks.
stdout: 0.6

stdin: Give ulcer index (mm) for the following molecule: COc1ccc2c(c1)c(CC(=O)Oc1ccccc1C(=O)Oc1ccccc1C(=O)OCc1ccccc1)c(C)n2C(=O)c1ccc(Cl)cc1
stdout: 0.4
